Assign Bliss excess to each entry below.
System: NKM-1 (Acute Myeloid Leukemia);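 further: after 72 h of two-drug dosing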
Assay: Bliss excess, mean over the matrix (fraction); higher = more synergy
Give bare numbers.

Form field Bliss excess, entry COc1cccc(OCCCN)c1-c1cc(Nc2cnc(C#N)cn2)n[nH]1 [Prexasertib] + Cc1cc2ncnn2cc1Nc1ncc2c(n1)n(C1CCOCC1)c(=O)n2C [AZD7648] (first compound max 1 µM, 7x7, partner max 10 µM) : -0.0271

I have 3 compounds here; please give me Bliss excess for each one.
1. CC(=O)Nc1cccc(-n2c(=O)n(C3CC3)c(=O)c3c(Nc4ccc(I)cc4F)n(C)c(=O)c(C)c32)c1 [Trametinib] + Cc1nc(-c2cn3c(n2)-c2ccc(-c4cnn(C(C)(C)C(N)=O)c4)cc2OCC3)n(C(C)C)n1 [Taselisib] (first compound max 1 µM, 7x7, partner max 10 µM)
2. CCN(CCO)CCCOc1ccc2c(Nc3cc(CC(=O)Nc4cccc(F)c4)[nH]n3)ncnc2c1 [AZD2811] + C[C@@H]1COCCN1C2=NC(=NC(=C2)C3(CC3)[S@](=N)(=O)C)C4=C5C=CNC5=NC=C4 [AZD6738] (first compound max 1 µM, 7x7, partner max 10 µM)
3. O=C(c1cc(Cc2n[nH]c(=O)c3ccccc23)ccc1F)N1CCN(C(=O)C2CC2)CC1 [Olaparib] + COc1nnc2ccc(N3CCC(c4ccc(OCCN5CCN(C)C(=O)[C@H]5C)cc4)CC3)nn12 [AZD5153] (first compound max 10 µM, 7x7, partner max 1 µM)

1. 0.255
2. 0.0425
3. -0.0231
